pKi: −log10 of the molar value.
Reported values: pKi for DOR (Homo sapiens, UniProt P41143), one per item.
recorded endpoint: pKi

[[record]]
compound = "O=C(Nc1ccccc1)[C@@H]1CC=C[C@@H]2CCN(C3CCCCC3)C(=O)[C@@H]21 (racemic)"
assay_system = "DOR (Homo sapiens, UniProt P41143)"
value_relation_sign = "="
reading = 5.05

[[record]]
compound = "O=C(Nc1ccc(F)c(F)c1)[C@@H]1CC=C[C@@H]2CCN(CC3CC3)C(=O)[C@@H]21 (racemic)"
assay_system = "DOR (Homo sapiens, UniProt P41143)"
value_relation_sign = "="
reading = 5.65

[[record]]
compound = "CC(c1ccccc1)N1CCC2C=CCC(C(=O)NC3CCCCC3)C2C1=O (mixture of isomers)"
assay_system = "DOR (Homo sapiens, UniProt P41143)"
value_relation_sign = "="
reading = 5.93

[[record]]
compound = "CC(c1ccccc1)N1CCC2C=CCC(C(=O)Nc3nccs3)C2C1=O (mixture of isomers)"
assay_system = "DOR (Homo sapiens, UniProt P41143)"
value_relation_sign = "="
reading = 5.84

[[record]]
compound = "O=C([C@@H]1CC=C[C@@H]2CCN(C3CCCCC3)C(=O)[C@@H]21)N1CCCC1 (racemic)"
assay_system = "DOR (Homo sapiens, UniProt P41143)"
value_relation_sign = "="
reading = 5.20

[[record]]
compound = "Cc1cc(C)c(NC(=O)[C@@H]2CC=C[C@@H]3CCN(Cc4ccccc4)C(=O)[C@@H]32)c(C)c1 (racemic)"
assay_system = "DOR (Homo sapiens, UniProt P41143)"
value_relation_sign = "="
reading = 5.49

[[record]]
compound = "O=C(Nc1ccc(Br)c(C(F)(F)F)c1)[C@@H]1CC=C[C@@H]2CCN(CC3CCCCC3)C(=O)[C@@H]21 (racemic)"
assay_system = "DOR (Homo sapiens, UniProt P41143)"
value_relation_sign = "="
reading = 6.29

[[record]]
compound = "O=C(Nc1ccc(Cl)cc1)[C@@H]1CC=C[C@@H]2CCN(C3CCCCC3)C(=O)[C@@H]21 (racemic)"
assay_system = "DOR (Homo sapiens, UniProt P41143)"
value_relation_sign = "="
reading = 6.24

[[record]]
compound = "Cc1ccc(NC(=O)[C@@H]2CC=C[C@@H]3CCN(Cc4ccccc4)C(=O)[C@@H]32)cc1Cl (racemic)"
assay_system = "DOR (Homo sapiens, UniProt P41143)"
value_relation_sign = "="
reading = 7.21

[[record]]
compound = "O=C(Nc1ccc(Cl)c(C(F)(F)F)c1)[C@@H]1CC=C[C@@H]2CN(Cc3ccccc3)C(=O)[C@@H]21 (racemic)"
assay_system = "DOR (Homo sapiens, UniProt P41143)"
value_relation_sign = "="
reading = 5.71

[[record]]
compound = "CCCCN1CC[C@H]2C=CC[C@@H](C(=O)Nc3ccccc3)[C@H]2C1=O (racemic)"
assay_system = "DOR (Homo sapiens, UniProt P41143)"
value_relation_sign = "="
reading = 5.21

[[record]]
compound = "O=C(Nc1ccc(Cl)c(C(F)(F)F)c1)[C@@H]1CC=C[C@@H]2CCN(Cc3cccc(Br)c3)C(=O)[C@@H]21 (racemic)"
assay_system = "DOR (Homo sapiens, UniProt P41143)"
value_relation_sign = "="
reading = 5.76

[[record]]
compound = "C=CCNC(=O)[C@@H]1CC=C[C@@H]2CCN(Cc3ccccc3)C(=O)[C@@H]21 (racemic)"
assay_system = "DOR (Homo sapiens, UniProt P41143)"
value_relation_sign = "="
reading = 5.46

[[record]]
compound = "O=C1[C@H]2[C@H](C=CC[C@H]2C(=O)N2CCN(c3ccccc3)CC2)CCN1Cc1ccccc1 (racemic)"
assay_system = "DOR (Homo sapiens, UniProt P41143)"
value_relation_sign = "="
reading = 5.41

[[record]]
compound = "NC(=O)c1ccccc1NC(=O)[C@@H]1CC=C[C@@H]2CCN(Cc3ccccc3)C(=O)[C@@H]21 (racemic)"
assay_system = "DOR (Homo sapiens, UniProt P41143)"
value_relation_sign = "="
reading = 5.23

[[record]]
compound = "O=C(Nc1cccnc1)[C@@H]1CC=C[C@@H]2CCN(Cc3ccccc3)C(=O)[C@@H]21 (racemic)"
assay_system = "DOR (Homo sapiens, UniProt P41143)"
value_relation_sign = "="
reading = 5.45

[[record]]
compound = "O=C(NCC1CC1)[C@@H]1CC=C[C@@H]2CCN(Cc3ccccc3)C(=O)[C@@H]21 (racemic)"
assay_system = "DOR (Homo sapiens, UniProt P41143)"
value_relation_sign = "="
reading = 6.27

[[record]]
compound = "O=C(Nc1cccc(Cl)c1)[C@@H]1CC=C[C@@H]2CN(C3CCCCC3)C(=O)[C@@H]21 (racemic)"
assay_system = "DOR (Homo sapiens, UniProt P41143)"
value_relation_sign = "="
reading = 6.02

[[record]]
compound = "O=C(Nc1ccc(Br)c(C(F)(F)F)c1)[C@@H]1CC=C[C@@H]2CN(Cc3ccccc3)C(=O)[C@@H]21 (racemic)"
assay_system = "DOR (Homo sapiens, UniProt P41143)"
value_relation_sign = "="
reading = 5.56

[[record]]
compound = "CN(C)C(=O)[C@@H]1CC=C[C@@H]2CCN(Cc3ccccc3)C(=O)[C@@H]21 (racemic)"
assay_system = "DOR (Homo sapiens, UniProt P41143)"
value_relation_sign = "<"
reading = 5.00

[[record]]
compound = "O=C(Nc1ccc(Cl)cc1)[C@@H]1CC=C[C@@H]2CCN(c3ccccc3)C(=O)[C@@H]21 (racemic)"
assay_system = "DOR (Homo sapiens, UniProt P41143)"
value_relation_sign = "="
reading = 6.77

[[record]]
compound = "CN(C)C(=O)[C@@H]1CC=C[C@@H]2CCN(c3ccccc3)C(=O)[C@@H]21 (racemic)"
assay_system = "DOR (Homo sapiens, UniProt P41143)"
value_relation_sign = "<"
reading = 5.00

[[record]]
compound = "O=C(Nc1ccccc1)[C@@H]1CC=C[C@@H]2CN(C3CCCCC3)C(=O)[C@@H]21 (racemic)"
assay_system = "DOR (Homo sapiens, UniProt P41143)"
value_relation_sign = "="
reading = 5.79

[[record]]
compound = "O=C(Nc1ccc(Cl)cc1)[C@@H]1CC=C[C@@H]2CCN(CC3CC3)C(=O)[C@@H]21 (racemic)"
assay_system = "DOR (Homo sapiens, UniProt P41143)"
value_relation_sign = "="
reading = 5.49

[[record]]
compound = "O=C(Nc1cc(F)c(F)c(F)c1)[C@@H]1CC=C[C@@H]2CCN(CC3CC3)C(=O)[C@@H]21 (racemic)"
assay_system = "DOR (Homo sapiens, UniProt P41143)"
value_relation_sign = "="
reading = 5.36

[[record]]
compound = "O=C(NCc1cccc(Br)c1)[C@@H]1CC=C[C@@H]2CCN(Cc3ccccc3)C(=O)[C@@H]21 (racemic)"
assay_system = "DOR (Homo sapiens, UniProt P41143)"
value_relation_sign = "="
reading = 6.36

[[record]]
compound = "O=C(NC1CCCCC1)[C@@H]1CC=C[C@@H]2CCN(CC3CC3)C(=O)[C@@H]21 (racemic)"
assay_system = "DOR (Homo sapiens, UniProt P41143)"
value_relation_sign = "="
reading = 5.60


Entry source: patent US8735391B2
